Attribution: ChEMBL document CHEMBL1201862

tested on: HT-29; experiment: NCI tumour cell line growth inhibition, 48 h
The source made the active and inactive calls. No stated cut-off is given here; in the data, active = GI50 up to about 1.1 µM and inactive = higher.

- compound: "Cc1c[n+]([O-])c2ccccc2[n+]1[O-]"
  GI50: "> 100 µM (inactive)"
- compound: "CCOC(=O)[C@H]1Nc2ccc(C)cc2C2c3ccccc3CC21 (stereo partly specified)"
  GI50: "> 100 µM (inactive)"
- compound: "Cn1c(N)[n+](C(=O)OCc2ccccc2)c(=O)c2c1ncn2C(=O)OCc1ccccc1"
  GI50: "> 100 µM (inactive)"
- compound: "CN1CCN(C(=O)c2cn(Cc3cncn3Cc3ccc4c(c3)OCO4)cc2-c2cccc3ccccc23)CC1"
  GI50: "3.11 µM (inactive)"
- compound: "CN(C)C(=N)NC(=S)N(C)C"
  GI50: "> 100 µM (inactive)"
- compound: "COC(=O)/C(C#N)=C1\\CCc2ccccc21"
  GI50: "> 100 µM (inactive)"

----------
tested on: MOLT-4; assay: NCI tumour cell line growth inhibition, 48 h
The source made the active and inactive calls. No stated cut-off is given here; in the data, active = GI50 up to about 1.1 µM and inactive = higher.
Possible outcomes: y for active, n for inactive

- molecule: "COc1ccc(-c2nc(Sc3c([N+](=O)[O-])ncn3C)n[nH]2)cc1"
  assigned_label: "n"
- molecule: "CCCCNC(=O)Cn1c2ccc(Br)cc2c2nc3ccccc3nc21"
  assigned_label: "n"
- molecule: "Cc1ccc2c(=O)c3ccccc3sc2c1"
  assigned_label: "n"
- molecule: "FC(F)(F)C12C34C=CC5(CCC6(C=CC1(CC3)O6)C52C(F)(F)F)O4 (stereo unspecified)"
  assigned_label: "n"
- molecule: "CC(C)(C)OC(=O)N1C(=O)C2CCCC21 (stereo unspecified)"
  assigned_label: "n"
- molecule: "CCc1nc(N)nc(N)c1-c1ccc(N(C)Cc2ccccc2)c([N+](=O)[O-])c1"
  assigned_label: "y"
- molecule: "COC(=O)C1CCCN1C(=O)C(Cc1cn(S(=O)(=O)c2ccc(C)cc2)cn1)NC(=O)OC(C)(C)C (stereo unspecified)"
  assigned_label: "n"
- molecule: "CN1C(=O)N(C)C(N2CCCC2)c2c1nc1ccccn1c2=O (stereo unspecified)"
  assigned_label: "n"
- molecule: "CCCC1C(C#N)(C#N)C(C#N)=C(N)C1(C)C(C)=O (stereo unspecified)"
  assigned_label: "n"
- molecule: "Cc1ccc(-c2n[nH]c(=O)n2NC(=O)c2ccccc2C(=O)O)cc1"
  assigned_label: "n"
- molecule: "Cc1ccccc1C(=O)NC(O)(C(F)(F)F)C(F)(F)F"
  assigned_label: "n"
- molecule: "CCCOc1c2cc(COC3OC(CO)C(O)C(O)C3O)cc1Cc1cc(COC3OC(CO)C(O)C(O)C3O)cc(c1OCCC)Cc1cc(COC3OC(CO)C(O)C(O)C3O)cc(c1OCCC)Cc1cc(COC3OC(CO)C(O)C(O)C3O)cc(c1OCCC)C2 (stereo unspecified)"
  assigned_label: "n"
- molecule: "O=C1c2cccc(O)c2C(=O)c2cccc(O)c21 [ANTHRARUFIN]"
  assigned_label: "n"
- molecule: "CCC(=O)Nc1ccc(N2C(=O)C(Cl)C2c2ccc(SC)cc2)cc1 (stereo unspecified)"
  assigned_label: "n"
- molecule: "O=C(O)CSc1ccc(N=C=S)cc1"
  assigned_label: "n"
- molecule: "N#COc1ccc(Oc2ccc(OC#N)cc2)cc1"
  assigned_label: "n"
- molecule: "Nc1ccc(CCSSCCc2ccc(N)cc2)cc1"
  assigned_label: "n"
- molecule: "COc1cc(/C=C2\\CC(C)C/C(=C\\c3ccc(O)c(OC)c3)C2=O)ccc1O (stereo unspecified)"
  assigned_label: "n"
- molecule: "CCCCc1ccc(Nc2nc3c(ncn3C3OC(COC(C)=O)C(OC(C)=O)C3OC(C)=O)c(=O)[nH]2)cc1 (stereo unspecified)"
  assigned_label: "n"
- molecule: "N#Cc1c(-c2ccc([N+](=O)[O-])cc2)c2c([nH]c1=O)-c1ccccc1CCC2"
  assigned_label: "n"
- molecule: "CC(=O)N1C(NN(C)C)CCN1c1ccccc1 (stereo unspecified)"
  assigned_label: "n"
